system: SF-295 CNS; experiment: NCI tumour cell line growth inhibition, 48 h
Recorded measurements of TGI, one per entry

{"SMILES_STRUCTURE": "COc1ccc(-c2cc3[nH]nc(N)c3c(=O)o2)cc1", "RESULT": "> 100 µM"}
{"SMILES_STRUCTURE": "N#Cc1cccc(/C=N/N=C(\\N)NO)c1", "RESULT": "> 100 µM"}
{"SMILES_STRUCTURE": "CN(C)c1ccc(/C=c2\\sc3nc4ccccc4n3c2=O)cc1", "RESULT": "> 100 µM"}
{"SMILES_STRUCTURE": "O=C1C(=Cc2c(O)cc(O)cc2O)C(=O)c2ccccc21", "RESULT": "> 57 µM"}

Reported TGI for CCCCn1c2c(n(CCCC)c1=S)-c1c(n(CCCC)c(=S)n1CCCC)SSc1c(n(CCCC)c(=S)n1CCCC)-c1c(n(CCCC)c(=S)n1CCCC)SSc1c(n(CCCC)c(=S)n1CCCC)-c1c(n(CCCC)c(=S)n1CCCC)SS2 : what is it?
> 37 µM
